Tested on: HCC-2998 colon
Assay: NCI-60 one-dose screen, 48 h (100 = growth as untreated, 0 = no growth, -100 = all killed)
Conditions: 10 µM unless noted
This is part of a sample that, as a whole, favours compounds with a hit. Of some 83,000 tested, about 20% had one in any assay.
measuredProperty: growth (%)
Give a bare numeral; the unit % is implied.

Request: Quick check: growth on HCC-2998 colon, item CC(C)NS(=O)(=O)c1cccc(-c2ccc3c4c(n(CCCN(C)C)c(=O)c3c2)-c2ccccc2C4=O)c1 ?
Result: 96.8

Request: Find growth (HCC-2998 colon) for the entry Nc1ccccc1NS(=O)(=O)c1ccc(Cl)cc1
Result: 84.4

Request: Fill in the recorded growth for this compound, with HCC-2998 colon as test system: COc1cc(/C=C/C(=O)c2ccc(NC(=O)CSc3nnc(-c4cc(OC)c(OC)c(OC)c4)n3-c3ccccc3)cc2)cc(OC)c1OC
Result: -91.8

Request: # get_value(readout= growth, system= HCC-2998 colon) for Nc1c(C(=O)Nc2ccccc2)sc2nc3c(cc12)CN(C(=O)OCc1ccccc1)CC3
Result: 77.5

Request: Query for HCC-2998 colon: what growth does the record show for C=C1C(=O)O[C@H]2[C@H]1CC/C(COC(=O)/C=C/c1cccnc1)=C\CC[C@@]1(C)O[C@@H]21 ?
Result: 94.8

Request: Lab request: please report growth under test system HCC-2998 colon for COc1cc(-c2csc(NC(=O)Nc3ccc(Cl)cc3)n2)cc(OC)c1OC
Result: 38.9

Request: Test system HCC-2998 colon; read-out growth; what value for N#Cc1c(-c2ccc(F)cc2)nc(N/N=C/c2c[nH]c3ccccc23)nc1N1CCOCC1 ?
Result: 59

Request: Param readout = growth; param system = HCC-2998 colon; param query = CCOC(=O)c1c(C(F)(F)F)n([O-])c2ccc(Cl)cc2[n+]1=O ; response: value
Result: -90.8

Request: Quick check: growth on HCC-2998 colon, item O=C(Nc1cc(=O)[nH]c(=O)[nH]1)C(Cl)Cl ?
Result: 92.4

Request: I'm curious: which growth was measured for O=C1NCc2ccc3c(-c4cccc(Cl)c4)c[nH]c3c21 tested on HCC-2998 colon?
Result: 25.3

Request: // map COC(=O)/C=C/c1cc(OC(C)=O)c2c(c1)C(C(=O)OC)C(c1ccc(OC(C)=O)c(OC(C)=O)c1)O2 (stereo not given) to recorded growth (system: HCC-2998 colon)
Result: 25.5

Request: // map O=C(C[n+]1cccc2cc(Cl)ccc21)c1ccc2c(c1)CCCC2 to recorded growth (system: HCC-2998 colon)
Result: 27.7

Request: Give HCC-2998 colon growth for CC(=O)c1cnc(-c2ccccc2)nc1CBr
Result: 99.8

Request: What value of growth on HCC-2998 colon does COc1cc(C2=NNC(c3ccc(N(C)C)cc3)C2)cc(OC)c1OC (stereo not given) have?
Result: 7.82

Request: For HCC-2998 colon, provide growth of O=C(Nc1nc2ccc(C(F)(F)F)cc2s1)c1cc(Cl)ccc1O please.
Result: 10.9

Request: What measured growth is associated with CC(=O)c1ccc(NC(=O)CSc2nnc(-c3cc(-c4ccc(C)cc4)nc4ccccc34)o2)cc1 on HCC-2998 colon?
Result: 102

Request: Look up growth with HCC-2998 colon for this compound: O=c1[nH]c(-c2cccc(F)c2)cc2cc(F)ccc12
Result: 44.6

Request: For the record c1ccc2nc(N3CCOCC3)c(N3CCCCC3)nc2c1 , what value of growth is listed for HCC-2998 colon?
Result: 103

Request: Look up growth with HCC-2998 colon for this compound: O=C1C(Cl)=C(NCCCN(CCCNC2=C(Cl)C(=O)c3ccccc3C2=O)C2=C(Cl)C(=O)c3ccccc3C2=O)C(=O)c2ccccc21
Result: 92.4

Request: Enter reported growth observed with HCC-2998 colon for CCCCCCCc1n(Cc2ccc3ccccc3c2)c2ccccc2[n+]1Cc1ccc2ccccc2c1
Result: -61.2

Data provenance is PubChem BioAssay (NCI).
